// data source = patent US11076595B2

system: Echinochloa crus-galli; assay: Test Example 11: herbicidal effect test by soil treatment in paddy field; assay type: in vivo; conditions: 120 g/10a active ingredient, 14 days after treatment
measured quantity: Weed suppression rate (%) Echinochloa crus-galli

- mol smiles: "CC(C)N(C(=O)n1cnn(S(=O)(=O)C2CC2)c1=O)c1ccccc1"
  endpoint result: 90
- mol smiles: "Cc1cc(C)c(S(=O)(=O)n2ncn(C(=O)N(c3ccc(F)cc3C)C(C)C)c2=O)c(C)c1"
  endpoint result: 100
- mol smiles: "Cc1ccc(N(C(=O)n2cnn(S(C)(=O)=O)c2=O)C(C)C)c(F)c1"
  endpoint result: 90
- mol smiles: "Cc1cc(C)c(S(=O)(=O)n2ncn(C(=O)N(c3ccc(F)cc3Cl)C(C)C)c2=O)c(C)c1"
  endpoint result: 90
- mol smiles: "Cc1cc(C)c(S(=O)(=O)n2ncn(C(=O)N(c3ccc(F)c(F)c3F)C(C)C)c2=O)c(C)c1"
  endpoint result: 100
- mol smiles: "CC(C)N(C(=O)n1cnn(S(=O)(=O)c2ccc(Cl)cc2)c1=O)c1c(F)c(F)cc(F)c1F"
  endpoint result: 80
- mol smiles: "CC(C)N(C(=O)n1cnn(S(=O)(=O)CCl)c1=O)c1ccc(F)cc1F"
  endpoint result: 100
- mol smiles: "Cc1cc(Cl)ccc1N(C(=O)n1cnn(S(=O)(=O)c2ccccc2Cl)c1=O)C(C)C"
  endpoint result: 90
- mol smiles: "CC(C)N(C(=O)n1cnn(S(=O)(=O)c2ccc(C(C)(C)C)cc2)c1=O)c1c(F)cc(F)cc1F"
  endpoint result: 90
- mol smiles: "CC(C)N(C(=O)n1cnn(S(=O)(=O)c2ccc(Cl)cc2)c1=O)c1ccc(F)cc1F"
  endpoint result: 90
- mol smiles: "Cc1ccc(N(C(=O)n2cnn(S(=O)(=O)c3ccc(C(C)(C)C)cc3)c2=O)C(C)C)c(F)c1"
  endpoint result: 90
- mol smiles: "CC(C)N(C(=O)n1cnn(S(=O)(=O)c2cccc(Cl)c2)c1=O)c1cccc(F)c1F"
  endpoint result: 80
- mol smiles: "CC(C)N(C(=O)n1cnn(S(=O)(=O)C2CC2)c1=O)c1ccc(C(F)(F)F)cc1F"
  endpoint result: 100
- mol smiles: "Cc1cc(Cl)ccc1N(C(=O)n1cnn(S(=O)(=O)C2CCCCC2)c1=O)C(C)C"
  endpoint result: 90
- mol smiles: "CC(C)N(C(=O)n1cnn(S(C)(=O)=O)c1=O)c1ccccc1"
  endpoint result: 90
- mol smiles: "CC(C)N(C(=O)n1cnn(S(=O)(=O)c2ccc(Cl)cc2)c1=O)c1ccc(Cl)cn1"
  endpoint result: 100

###

test system: Amaranthus viridis; assay: Test Example 14: herbicidal effect test by foliage treatment in upland field; type: in vivo; settings: 7 days after sowing, 120 g/10a, 14 days after treatment

- compound: "CC(C)N(C(=O)n1cnn(S(=O)(=O)c2ccc(F)cc2)c1=O)c1ccc(F)cc1Cl [Compound 11-482]"
  unit spec: "%"
  herbicidal effect, Amaranthus viridis: 90
- compound: "CC(C)N(C(=O)n1cnn(S(=O)(=O)c2c(F)c(F)c(F)c(F)c2F)c1=O)c1ccccc1 [Compound 11-800]"
  unit spec: "%"
  herbicidal effect, Amaranthus viridis: 100
- compound: "CC(C)N(C(=O)n1cnn(S(=O)(=O)N(C)C)c1=O)c1ccc(Cl)cc1F [Compound 11-1072]"
  unit spec: "%"
  herbicidal effect, Amaranthus viridis: 90
- compound: "CC(C)N(C(=O)n1cnn(S(=O)(=O)C(C)C)c1=O)c1c(F)cccc1F [Compound 11-61]"
  unit spec: "%"
  herbicidal effect, Amaranthus viridis: 70
- compound: "CC(C)N(C(=O)n1cnn(S(=O)(=O)C2CCCCC2)c1=O)c1ccc(F)c(F)c1F [Compound 11-297]"
  unit spec: "%"
  herbicidal effect, Amaranthus viridis: 90
- compound: "CC(C)N(C(=O)n1cnn(S(=O)(=O)C(C)C)c1=O)c1c(F)c(F)cc(F)c1F [Compound 11-64]"
  unit spec: "%"
  herbicidal effect, Amaranthus viridis: 60
- compound: "CC(C)N(C(=O)n1cnn(S(=O)(=O)C2CCCCC2)c1=O)c1ccccc1 [Compound 11-283]"
  unit spec: "%"
  herbicidal effect, Amaranthus viridis: 90
- compound: "Cc1ccccc1S(=O)(=O)n1ncn(C(=O)N(c2ccc(F)cc2F)C(C)C)c1=O [Compound 11-623]"
  unit spec: "%"
  herbicidal effect, Amaranthus viridis: 40
- compound: "CC(C)N(C(=O)n1cnn(S(=O)(=O)c2cccs2)c1=O)c1ccccc1 [Compound 11-1011]"
  unit spec: "%"
  herbicidal effect, Amaranthus viridis: 90
- compound: "CC(C)N(C(=O)n1cnn(S(=O)(=O)C2CC2)c1=O)c1cccc(F)c1F [Compound 11-189]"
  unit spec: "%"
  herbicidal effect, Amaranthus viridis: 60
- compound: "CC(C)N(C(=O)n1cnn(S(=O)(=O)c2cccc(C(F)(F)F)c2)c1=O)c1ccc(Cl)cc1Br [Compound 11-735]"
  unit spec: "%"
  herbicidal effect, Amaranthus viridis: 70
- compound: "CC(C)N(C(=O)n1cnn(S(=O)(=O)N(C)C)c1=O)c1ccc(Cl)cn1 [Compound 11-1090]"
  unit spec: "%"
  herbicidal effect, Amaranthus viridis: 40
- compound: "CC(C)N(C(=O)n1cnn(S(=O)(=O)C2CCCCC2)c1=O)c1c(F)cccc1F [Compound 11-296]"
  unit spec: "%"
  herbicidal effect, Amaranthus viridis: 90
- compound: "Cc1ccc(N(C(=O)n2cnn(S(=O)(=O)C3CC3)c2=O)C(C)C)c(F)c1 [Compound 11-212]"
  unit spec: "%"
  herbicidal effect, Amaranthus viridis: 90
- compound: "CC(C)N(C(=O)n1cnn(S(=O)(=O)C2CCOCC2)c1=O)c1ccc(F)cc1F [Compound 11-1109]"
  unit spec: "%"
  herbicidal effect, Amaranthus viridis: 90
- compound: "CC(C)N(C(=O)n1cnn(S(=O)(=O)C2CCCC2)c1=O)c1ccc(F)cc1F [Compound 11-273]"
  unit spec: "%"
  herbicidal effect, Amaranthus viridis: 90
- compound: "CC(C)N(C(=O)n1cnn(S(=O)(=O)C(C)C)c1=O)c1ccc(F)cc1F [Compound 11-59]"
  unit spec: "%"
  herbicidal effect, Amaranthus viridis: 90
- compound: "Cc1ccc(N(C(=O)n2cnn(S(=O)(=O)CCl)c2=O)C(C)C)c(F)c1 [Compound 11-123]"
  unit spec: "%"
  herbicidal effect, Amaranthus viridis: 90
- compound: "CC(C)N(C(=O)n1cnn(S(=O)(=O)C2CC2)c1=O)c1ccc(Cl)cn1 [Compound 11-233]"
  unit spec: "%"
  herbicidal effect, Amaranthus viridis: 40
- compound: "CC(C)N(C(=O)n1cnn(S(=O)(=O)C2CC2)c1=O)c1ccc(Br)cc1Cl [Compound 11-209]"
  unit spec: "%"
  herbicidal effect, Amaranthus viridis: 30
- compound: "CC(C)CN(C)S(=O)(=O)n1ncn(C(=O)N(c2ccc(F)cc2F)C(C)C)c1=O [Compound 11-1101]"
  unit spec: "%"
  herbicidal effect, Amaranthus viridis: 90
- compound: "CC(C)N(C(=O)n1cnn(S(=O)(=O)c2ccccc2Cl)c1=O)c1ccccc1 [Compound 11-501]"
  unit spec: "%"
  herbicidal effect, Amaranthus viridis: 0
- compound: "CC(C)N(C(=O)n1cnn(S(=O)(=O)c2c(F)c(F)c(F)c(F)c2F)c1=O)c1c(F)cc(F)cc1F [Compound 11-815]"
  unit spec: "%"
  herbicidal effect, Amaranthus viridis: 70
- compound: "CC(C)N(C(=O)n1cnn(S(=O)(=O)c2cccs2)c1=O)c1ccc(Br)cc1Cl [Compound 11-1033]"
  unit spec: "%"
  herbicidal effect, Amaranthus viridis: 60
- compound: "CC(C)N(C(=O)n1cnn(S(=O)(=O)N(C)C)c1=O)c1ccc(F)cc1 [Compound 11-1056]"
  unit spec: "%"
  herbicidal effect, Amaranthus viridis: 90
- compound: "CCc1ccc(S(=O)(=O)n2ncn(C(=O)N(c3ccc(F)cc3F)C(C)C)c2=O)cc1 [Compound 11-666]"
  unit spec: "%"
  herbicidal effect, Amaranthus viridis: 40
- compound: "CC(C)CS(=O)(=O)n1ncn(C(=O)N(c2ccc(F)cc2F)C(C)C)c1=O [Compound 11-94]"
  unit spec: "%"
  herbicidal effect, Amaranthus viridis: 50
- compound: "CCS(=O)(=O)n1ncn(C(=O)N(c2cccc(F)c2F)C(C)C)c1=O [Compound 11-1148]"
  unit spec: "%"
  herbicidal effect, Amaranthus viridis: 70
- compound: "CC(C)N(C(=O)n1cnn(S(C)(=O)=O)c1=O)c1ccc(F)cc1Cl [Compound 11-19]"
  unit spec: "%"
  herbicidal effect, Amaranthus viridis: 90
- compound: "Cc1cc(Cl)ccc1N(C(=O)n1cnn(S(=O)(=O)C(C)C)c1=O)C(C)C [Compound 11-74]"
  unit spec: "%"
  herbicidal effect, Amaranthus viridis: 90
- compound: "CC(C)N(C(=O)n1cnn(S(=O)(=O)C(C)C)c1=O)c1ccc(Cl)cc1F [Compound 11-67]"
  unit spec: "%"
  herbicidal effect, Amaranthus viridis: 60
- compound: "CC(C)N(C(=O)n1cnn(S(=O)(=O)c2ccccc2Cl)c1=O)c1ccc(F)cc1F [Compound 11-512]"
  unit spec: "%"
  herbicidal effect, Amaranthus viridis: 40
